Origin of measurements: patent US10822337B2

# Test system: TGF-β signaling (TGF-β pSMAD, MPC-11)
# TEST_PROTOCOL: AlphaScreen SureFire SMAD3 (p-Ser423/425) assay, inhibition of TGF-β signaling
# Assay type: cell-based
# APPLIED_CONDITIONS: Mus musculus, p-SMAD-3 (Ser423/425) in cell lysate after TGF-β stimulation
pIC50: −log10 of the molar value.
PROPERTY_NAME: pIC50

Field: example entries. Status: answers known.
SMILES_STR	pIC50
COc1c(F)ccc(-c2nn3c(c2-c2ccc4ncsc4c2)CCC3)c1F	5.65
Cc1cc(-c2nn3c(c2-c2ccc4ncccc4c2)CCC3)ccc1F	5.60

P. Fc1ccc(Cl)cc1-c1nn2c(c1-c1ccc3nccnc3c1)CCC2
Q. Fc1ccc(-c2nn3c(c2-c2ccc4ncsc4c2)CCC3)cc1Cl
R. Cc1cccc(-c2nn3c(c2-c2ccc4[nH]ncc4c2)CCC3)c1
Hi! Can you put these in order of pIC50, lowest number first? Sort the labels as requested; that list is your answer.
Q, P, R
(Q: 6.24, P: 7.08, R: 7.40)

----------
# System: TGF-β signaling (TGF-β pSMAD, MPC-11)
# TEST_PROTOCOL: AlphaScreen SureFire SMAD3 (p-Ser423/425) assay, inhibition of TGF-β signaling
# Type: cell-based
# APPLIED_CONDITIONS: Mus musculus, p-SMAD-3 (Ser423/425) in cell lysate after TGF-β stimulation
# Protocol: Example 2: AlphaScreen® SureFire® SMAD3 (p-Ser423/425) Assay […] Dilution buffer+AlphaScreen® Donor beads (2 μL) was then added, and the plate was intubated on the plate shaker for an additional 1½ hours. After completion, the plate was read on Synergy-4 or Enspire plate reader, using AlphaScreen® pSMAD3® settings. […]
PROPERTY_NAME: IC50 (nM)

COMPOUND	TARGET_ENTITY	QUANTITATIVE_READOUT
Fc1ccc(F)c(-c2nn3c(c2-c2ccc4nccn4c2)CCC3)c1 [Compound 194]	TGF-β signaling (TGF-β pSMAD, MPC-11)	909

I. Fc1ccc(Cl)cc1-c1nn2c(c1-c1ccc3ncnn3c1)CCC2 [Compound 178]
II. Fc1ccc(-c2nn3c(c2-c2ccc4nccnc4c2)CCC3)c(F)c1F [Compound 132]
Record comparison, field IC50: mark the lower of I and II . Your answer should be the label of the entry you select.
I

----------
# Test system: TGF-β signaling (TGF-β pSMAD, MPC-11)
# TEST_PROTOCOL: AlphaScreen SureFire SMAD3 (p-Ser423/425) assay, inhibition of TGF-β signaling
# Format: cell-based
# APPLIED_CONDITIONS: Mus musculus, p-SMAD-3 (Ser423/425) in cell lysate after TGF-β stimulation
PROPERTY_NAME: IC50 (nM)

The cases that follow already have their IC50 on record.
COMPOUND	TARGET_ENTITY	QUANTITATIVE_READOUT
Cc1cc(-c2nn3c(c2-c2ccc4nc[nH]c4c2)CCC3)ccc1F [Compound 9]	TGF-β signaling (TGF-β pSMAD, MPC-11)	152
Fc1ccc(-c2nn3c(c2-c2ccc4nccn4c2)CCC3)cc1Cl [Compound 144]	TGF-β signaling (TGF-β pSMAD, MPC-11)	343
Fc1cc(F)c(-c2nn3c(c2-c2ccc4ncsc4c2)CCC3)cc1Cl [Compound 189]	TGF-β signaling (TGF-β pSMAD, MPC-11)	232
Fc1ccc(-c2nn3c(c2-c2ccc4nccnc4c2)OCC3)cc1 [Compound 70]	TGF-β signaling (TGF-β pSMAD, MPC-11)	1370

A. Fc1ccc(-c2nn3c(c2-c2ccc4cn[nH]c4c2)CCC3)cc1 [Compound 6]
B. Cn1cnc2ccc(-c3c(-c4ccc(F)cc4F)nn4c3CCC4)cc21 [Compound 93]
C. FC(F)(F)Oc1cccc(-c2nn3c(c2-c2ccc4nccn4c2)CCC3)c1 [Compound 124]
D. Cc1cccc(-c2nn3c(c2-c2ccc4ncnn4c2)CCC3)c1 [Compound 104]
E. Cc1cccc(-c2nn3c(c2-c2ccc4[nH]ncc4c2)OCC3)c1 [Compound 36]
# sort list by recorded IC50, greatest to least Please respond by ranking the labels in the order requested.
A, E, B, D, C

----------
# System: TGF-β signaling (TGF-β pSMAD, MPC-11)
# TEST_PROTOCOL: AlphaScreen SureFire SMAD3 (p-Ser423/425) assay, inhibition of TGF-β signaling
# Format: cell-based
# APPLIED_CONDITIONS: Mus musculus, p-SMAD-3 (Ser423/425) in cell lysate after TGF-β stimulation
PROPERTY_NAME: IC50 (nM)

Solved entries (count: 8):
COMPOUND	QUANTITATIVE_READOUT
FC(F)(F)c1cccc(-c2nn3c(c2-c2ccc4nccnc4c2)CCC3)c1 [Compound 58]	863
FC(F)(F)c1cccc(-c2nn3c(c2-c2ccc4ncccc4c2)OCC3)c1 [Compound 63]	6030
Cc1c(F)ccc(-c2nn3c(c2-c2ccc4ncccc4c2)CCC3)c1F [Compound 171]	1840
Cc1c(F)ccc(-c2nn3c(c2-c2ccc4nccn4c2)CCC3)c1F [Compound 169]	464
Cc1cccc(-c2nn3c(c2-c2ccc4ncccc4c2)CCC3)c1 [Compound 46]	1510
Clc1cccc(-c2nn3c(c2-c2ccc4ncccc4c2)CCC3)c1 [Compound 49]	926
COc1ccc(-c2nn3c(c2-c2ccc4cn[nH]c4c2)CCC3)cc1 [Compound 99]	1650
Fc1ccc(-c2nn3c(c2-c2ccc4nccn4c2)CCC3)cc1OC(F)(F)F [Compound 151]	1160

P. Cc1c(F)ccc(-c2nn3c(c2-c2ccc4[nH]ncc4c2)CCC3)c1F [Compound 167]
Q. Fc1ccc(-c2nn3c(c2-c2ccc4nccnc4c2)CCC3)c(F)c1Cl [Compound 159]
R. FC(F)(F)c1cccc(-c2nn3c(c2-c2ccc4ncnn4c2)CCC3)c1 [Compound 108]
S. Fc1cc(F)c(-c2nn3c(c2-c2ccc4ncccc4c2)CCC3)cc1F [Compound 117]
Arrange by IC50, high to low. Output the labels ranked as instructed.
Q, S, P, R
(Q: 2730 nM, S: 1490 nM, P: 538 nM, R: 159 nM)

I. COc1cccc(-c2nn3c(c2-c2ccc4nccnc4c2)OCC3)c1 [Compound 76]
II. Fc1ccc(-c2nn3c(c2-c2ccc4nccn4c2)OCC3)cc1 [Compound 67]
// compare: I vs II , metric IC50, want the smaller When you have decided, please share the label of that item.
I

----------
# System: TGF-β signaling (TGF-β pSMAD, MPC-11)
# TEST_PROTOCOL: AlphaScreen SureFire SMAD3 (p-Ser423/425) assay, inhibition of TGF-β signaling
# Assay type: cell-based
# APPLIED_CONDITIONS: Mus musculus, p-SMAD-3 (Ser423/425) in cell lysate after TGF-β stimulation
pIC50: −log10 of the molar value.
PROPERTY_NAME: pIC50

// worked examples, pIC50 included
COMPOUND	pIC50
COc1c(F)ccc(-c2nn3c(c2-c2ccc4[nH]ncc4c2)CCC3)c1F [Compound 161]	5.84
COc1cccc(-c2nn3c(c2-c2ccc4nccnc4c2)CCC3)c1 [Compound 56]	6.06

P. Fc1ccccc1-c1nn2c(c1-c1ccc3ncnn3c1)CCC2 [Compound 137]
Q. Cc1cccc(-c2nn3c(c2-c2ccc4ncsc4c2)OCC3)c1 [Compound 39]
Among P and Q , whose measured pIC50 is the smaller figure? Refer to your chosen entry by its label in the reply.
P
(P: 6.18, Q: 6.76)

----------
# System: TGF-β signaling (TGF-β pSMAD, MPC-11)
# TEST_PROTOCOL: AlphaScreen SureFire SMAD3 (p-Ser423/425) assay, inhibition of TGF-β signaling
# Type: cell-based
# APPLIED_CONDITIONS: Mus musculus, p-SMAD-3 (Ser423/425) in cell lysate after TGF-β stimulation
pIC50: −log10 of the molar value.
PROPERTY_NAME: pIC50

Use the examples below as a reference point.
SMILES_STR	pIC50
Fc1ccc(-c2nn3c(c2-c2ccc4ncsc4c2)CCC3)cc1F	5.99
Cc1cccc(-c2nn3c(c2-c2ccc4nccnc4c2)OCC3)c1	6.69
Cc1cccc(-c2nn3c(c2-c2ccc4cn[nH]c4c2)CCC3)c1	7.10
Fc1cc(F)c(-c2nn3c(c2-c2ccc4cn[nH]c4c2)CCC3)cc1F	5.83
Cc1cc(-c2nn3c(c2-c2ccc4ncccc4c2)CCC3)c(F)cc1F	5.78
FC(F)(F)c1cccc(-c2nn3c(c2-c2ccc4cn[nH]c4c2)OCC3)c1	6.07
Fc1ccc(-c2nn3c(c2-c2ccc4nccnc4c2)CCC3)c(F)c1	6.18
Fc1ccc(-c2nn3c(c2-c2ccc4ncsc4c2)CCC3)cc1OC(F)(F)F	5.76
Cn1cnc2ccc(-c3c(-c4ccc(F)cc4)nn4c3CCC4)cc21	6.74
FC(F)(F)c1cccc(-c2nn3c(c2-c2ccc4[nH]ncc4c2)CCC3)c1	6.77

I. Cn1cnc2ccc(-c3c(-c4cccc(C(F)(F)F)c4)nn4c3OCC4)cc21
II. Cc1c(F)ccc(-c2nn3c(c2-c2ccc4nccnc4c2)CCC3)c1F
III. Cc1cc(-c2nn3c(c2-c2ccc4ncsc4c2)CCC3)ccc1F
IV. Cc1cc(-c2nn3c(c2-c2ccc4[nH]ncc4c2)CCC3)c(F)cc1F
V. Fc1cc(F)c(-c2nn3c(c2-c2ccc4ncnn4c2)CCC3)cc1Cl
Rank descending by pIC50. Put the labels in the requested order and list them out.
V, I, III, IV, II
(V: 7.18, I: 6.67, III: 6.43, IV: 6.15, II: 5.75)

P. Cc1cc(-c2nn3c(c2-c2ccc4nccnc4c2)CCC3)c(F)cc1F
Q. Clc1cccc(-c2nn3c(c2-c2ccc4ncnn4c2)CCC3)c1
Hello, I am sorting some records. Could you say if P or Q has the smaller pIC50 value? Indicate which entry you chose by stating its label.
P
